Test system: MDA-MB-435
Experiment: Cytotoxicity against MDA-MB-435 human breast cancer cell line was determined
Type: functional
MEASURE_NAME: GI50 (nM)
Give just the number in nM; leave the unit off.

These solved cases illustrate the format of a correct answer.
>>> print(df.to_string())
                           substance_smiles  measure_name  test_value
0    NCCCn1c2c(c3ccccc3c1=O)C(=O)c1ccccc1-2          GI50         780
1  O=C1c2ccccc2-c2c1c1ccc([N+](=O)[O-])cc1c(=O)n2CCCCl          GI50       31600
2  NCCCn1c2c(c3ccc([N+](=O)[O-])cc3c1=O)C(=O)c1cc3c(cc1-2)OCO3          GI50          25
3  O=C1c2cc3c(cc2-c2c1c1ccc([N+](=O)[O-])cc1c(=O)n2CCCCl)OCO3          GI50        1820
4  CN1C(=O)c2cc([N+](=O)[O-])ccc2[C@H]2C(=O)c3cc4c(cc3[C@H]21)OCO4          GI50         107

Exercise: Hello, please tell me recorded GI50 for this one: `COc1cc2c(cc1OC)[C@H]1C(=O)c3cc4c(cc3[C@H]1N(CCCBr)C2=O)OCO4`
Solution: 150

Exercise: Please report GI50 for the following compound: `COc1cc2c3c(n(C)c(=O)c2cc1OC)-c1cc2c(cc1C3=O)OCO2`
Solution: 96000

Exercise: Determine from records and report GI50 for `[N-]=[N+]=NCCCn1c2c(c3ccccc3c1=O)C(=O)c1ccccc1-2`
Solution: 7760

====

Tested on: SN12C
Experiment: Cytotoxicity against SN12C human renal cancer cell line was determined
Format: functional
Measured GI50 accompanies every entry in the list below.

Illustrative cases are given below, each with its answer.
In [3]: df
Out[3]:
                           substance_smiles  measure_name  test_value
0  O=C1c2cc3c(cc2-c2c1c1ccc([N+](=O)[O-])cc1c(=O)n2CCCCl)OCO3          GI50      132 nM
1  NCCCn1c2c(c3ccc([N+](=O)[O-])cc3c1=O)C(=O)c1ccccc1-2          GI50      102 nM
2  [N-]=[N+]=NCCCn1c2c(c3ccc([N+](=O)[O-])cc3c1=O)C(=O)c1ccccc1-2          GI50    72400 nM

Exercise: Entry `O=C1c2ccccc2-c2c1c1ccc([N+](=O)[O-])cc1c(=O)n2CCCCl` needs its GI50 filled in; supply it.
Solution: 26900 nM

Exercise: For the compound `CN1C(=O)c2cc([N+](=O)[O-])ccc2[C@H]2C(=O)c3cc4c(cc3[C@H]21)OCO4` , give its reported GI50.
Solution: 33 nM

Exercise: Provide measured GI50 value, entry: `COc1cc2c3c(n(C)c(=O)c2cc1OC)-c1cc2c(cc1C3=O)OCO2`
Solution: 68000 nM

Exercise: Output measured GI50 for this item: `O=C1c2cc3c(cc2[C@@H]2[C@H]1c1ccc([N+](=O)[O-])cc1C(=O)N2CCCCl)OCO3`
Solution: < 10 nM

Exercise: Please list GI50 recorded for the compound `O=C1c2cc3c(cc2[C@@H]2[C@H]1c1ccc([N+](=O)[O-])cc1C(=O)N2CCCBr)OCO3`
Solution: < 10 nM

Exercise: Return the recorded GI50 value; entry: `[N-]=[N+]=NCCCn1c2c(c3ccccc3c1=O)C(=O)c1ccccc1-2`
Solution: 25100 nM

Exercise: Report measured GI50; entry is `[N-]=[N+]=NCCCn1c2c(c3ccc([N+](=O)[O-])cc3c1=O)C(=O)c1cc3c(cc1-2)OCO3`
Solution: < 10 nM

The origin of these recorded values is ChEMBL document CHEMBL1146791.
